# method_notes: qHTS assay to identify small molecule agonists of the estrogen receptor alpha (ER-alpha) signaling pathway in the presence of an antagonist - cell viability counter screen (AID 1259386);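 further: cells exposed to compounds for 22 h at 37 °C before the viability read; on the % scale 0 is the no-effect control and ±100 the full control effect; nearly all actives have a fitted effect of over 30% in size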
# assay_context: VM7Luc4E2 viability, CellTiter-Fluor fluorescence, 22 h; series mostly up to 92.4 µM
Inconclusive results are not listed. Activity calls are given as the source filed them. The call rests on the fitted dose curve; in most records, active means well fitted cell-killing curve with a large enough effect in the repeat runs; inconclusive means weak or mixed curves, or effect the other way; inactive means no such curve, though single readings can be large or run the other way.
quantity_kind: activity change, negative = cytotoxicity

# compound, quantity_kind, result
data = [
    ("Brc1c2ccccc2c(Br)c2ccccc12", "activity change, negative = cytotoxicity", "2.81% [at 8.39 µM] (inactive)"),
]

Exercise: Would you kindly share the measured activity change, negative = cytotoxicity for CC(CSC(=O)c1ccccc1)C(=O)N1C[C@@H](Sc2ccccc2)C[C@H]1C(=O)O (stereo not given in full) ?
Key: 3.85% [at 19 µM] (inactive)

Exercise: Query C/C(=C(\CCOP(=O)(O)O)SC(=O)c1ccccc1)N(C=O)Cc1cnc(C)nc1N next
Key: 1.33% [at 8.39 µM] (inactive)

Exercise: Try the compound NCC(=O)O
Key: 6.54% [at 19 µM] (inactive)

Exercise: Quick one: O=C(O)CNCC(=O)O
Key: -4.75% [at 8.39 µM] (inactive)
